Reference source for all entries: patent US20160176924A1

Target: HIS-PDZ1-2 protein (PSD-95 PDZ1-2 tandem, residues 61-249, with tag …) (human, UniProt P78352 61-249)
Assay: FP competition, fluorescent NR2B probe; exact Ki not calculable
Ends that are not written are not given here.
endpoint.label: Ki

INSERT INTO results (binder, endpoint_label, result) VALUES
  ('{PEG12‑diacid}-IESDV (also: dimer: two peptides N-terminally joined via PEG12-diacid, Dimeric ligand) [(IESDV)2PEG12 (74)]', 'Ki', '~100 nM');
